Tested on: Fibroblast
Assay: Multiplex assay against human fibroblast
Type: toxicity, cell-based
Conditions: 12 h, 1 µM, compound concentration 1 uM, number of replicates 2
Sorting guide: entries reporting Population Membrane Permeable-Phenotype (%) beneath 6% go in the Yes pile, the rest go in the No pile.

>>> classification("COc1ccc(CC[C@@H](OC(=O)[C@@H]2CCCCN2C(=O)[C@H](c2cc(OC)c(OC)c(OC)c2)C2CCCCC2)c2cccc(OCCN3CCOCC3)c2)cc1OC")
"No"

Quick check: Population Membrane Permeable-Phenotype (%) of Cc1ccc2c(N)c(C(=O)NC3CCc4cc(N5CC6CCC(C5)N6)ccc4C3)sc2n1.O=CO (configuration not stated) under 6%? Yes

Proceed to `CNc1ncc2cc(-c3ccc(-c4cccc(C)n4)cc3Cl)c(=O)n(C[C@H]3OC[C@H](N)CO3)c2n1` No

Proceed to `CN(C)CCCNc1ccnc(Nc2cccc(Cl)c2)n1` Yes

Proceed to `CC(C)NC(=O)[C@H]1CCC[C@H]1Nc1nc(Nc2ccc(C(=O)N(C)C3CCN(C)CC3)cc2)ncc1Cl` No

Proceed to `C=CC(=O)Nc1cccc(C)c1Nc1ncc2cc(-c3c(Cl)c(OC)cc(OC)c3Cl)ccc2n1` Yes
